src = PubChem BioAssay (NCI)

System: CAKI-1 renal
Assay: NCI-60 one-dose screen, 48 h
Conditions: 10 µM unless noted
Description: Growth inhibition of the CAKI-1 human tumor cell line is measured as a screen for anti-cancer activity. Cells are grown in 96 well plates and exposed to the test compound for 48 hours. Compounds are tested at a single concentration, which is 10^-5 M for most compounds. The reported endpoint is percent growth (GI% or GIPRCNT), where numbers from 0 - 100% represent growth inhibition, and numbers from -100% - 0 represent cell death. For example, a value of 40 represents 60% growth inhibition. […]
The panel holds about 83,000 compounds, 20% with a hit somewhere; the sample as a whole holds those more often. Activity calls are given as the source filed them. The calls were made as follows: active = growth percent below 10; inactive = the rest.
Respond only with the outcome that fits, drawn from active, inactive

Examples from the recorded data:
COMPOUND: Cc1ccc(-c2cn(C/C=C3\C=CN(S(=O)(=O)c4ccccc4)CC3)nn2)cc1
MEASUREMENT TARGET: CAKI-1 renal
CATEGORY: inactive
//
COMPOUND: Nc1cc(N)c(N=Nc2ccc(S(=O)(=O)O)cc2)cc1N=Nc1ccc(-c2ccc(N=Nc3ccc(O)c(C(=O)O)c3)cc2)cc1
MEASUREMENT TARGET: CAKI-1 renal
CATEGORY: inactive
//
COMPOUND: N#Cc1c(Cl)nc(SCC2CO2)nc1-c1ccccc1 (stereo unspecified)
MEASUREMENT TARGET: CAKI-1 renal
CATEGORY: inactive
//
COMPOUND: CC(=O)CC(=O)SC1=NCCS1
MEASUREMENT TARGET: CAKI-1 renal
CATEGORY: inactive
//
COMPOUND: COc1cc2c(c(Br)c1N)-c1cc(Br)c(N)cc1C2=O
MEASUREMENT TARGET: CAKI-1 renal
CATEGORY: inactive
//
COMPOUND: Nc1nc(SCc2cccc([N+](=O)[O-])c2)c2[nH]cnc2n1
MEASUREMENT TARGET: CAKI-1 renal
CATEGORY: inactive

Query: In this assay, the call recorded for CCCCC(CC)COC(=O)C[N+](C)(C)CCOC(c1ccccc1)c1ccccc1 (stereo unspecified) was what?
Response: inactive

Query: In this assay, the call recorded for COc1ccc(-c2ccc(NNC(=O)c3ccc(F)cc3)nn2)cc1OC was what?
Response: inactive

Query: In this assay, the call recorded for Cc1ccccc1-n1nnc(C(=O)Nc2nc3ccc(F)cc3s2)c1C was what?
Response: inactive

Query: In this assay, the call recorded for Cc1ccc(Cn2c(O)c(N=NC(=O)c3ccc(S(N)(=O)=O)cc3)c3ccccc32)cc1 was what?
Response: inactive

Query: In this assay, the call recorded for Oc1c(CNCCNCc2cc(Cl)cc(Cc3ccccc3)c2O)cc(Cl)cc1Cc1ccccc1 was what?
Response: active

====

test system: HOP-92 NSCLC; test: NCI-60 one-dose screen, 48 h; conditions: 10 µM unless noted
About 83,000 compounds went through this panel and 20% of them were active in at least one assay; those are over-represented in the sample as a whole. The source made the active and inactive calls. How the source made its calls: active means growth percent below 10; inactive means the rest.
Respond only with the outcome that fits, drawn from active, inactive

COMPOUND: Cc1ccc2c(n1)C(=O)C(Cl)=C(Nc1ccc(N3CCN(C)CC3)cc1)C2=O
CATEGORY: active

COMPOUND: CCCCCN(CCCCC)CCCCCCCCN1CCCc2ccccc21
CATEGORY: inactive

COMPOUND: O=C(Nc1cccc(C2=NCCN2)c1)c1cccc(C(=O)Nc2cccc(C3=NCCN3)c2)c1
CATEGORY: inactive

Query: In this assay, the call recorded for COc1cc2c(c(Br)c1N)-c1cc(Br)c(N)cc1C2=O was what?
Response: inactive

Query: In this assay, the call recorded for C[n+]1c(-c2ccccc2)c2cc(N)ccc2c2ccccc21 was what?
Response: inactive

Query: In this assay, the call recorded for Cc1ccc(Oc2c(/C=N/NC(=O)Cn3c(=O)sc4ccccc43)c(C)nn2-c2ccccc2)cc1 was what?
Response: inactive

Query: In this assay, the call recorded for Nc1ccc(NC(=O)c2ccccc2)c2c1C(=O)c1ccccc1C2=O was what?
Response: inactive

Query: In this assay, the call recorded for CSc1cccc([N+](=O)[O-])c1 was what?
Response: inactive

Query: In this assay, the call recorded for C=C(C)[C@@H]1CC[C@]2(C)[C@H](C(=O)C=C3[C@@H]4C[C@](C)(C(=O)N5CCN(C)CC5)CC[C@]4(C)CC[C@]32C)[C@@]1(C)CCC#N was what?
Response: active

Query: In this assay, the call recorded for C[C@@H]1C[C@H]2C(=O)O[C@@H](C)[C@H](NC(=O)[C@H](Cc3cc(F)cc(F)c3)NC(=O)Nc3ccc(Cl)cc3F)C(=O)N3C[C@H](O)C[C@H]3C(=O)N3CCN(C)C[C@H]3C(=O)N[C@@H](C)C(=O)N2C1 was what?
Response: inactive

Query: In this assay, the call recorded for CCN(CC)CCCNCc1cc(-c2ccccc2)nc2ccccc12 was what?
Response: inactive

Query: In this assay, the call recorded for Cc1ccc(S(=O)(=O)N/N=C2\CC3CCC2(C)C3(C)C)cc1 (stereo unspecified) was what?
Response: inactive

Query: In this assay, the call recorded for COc1cc2c(c(OC)c1)C1c3cc(OC)ccc3NC(=O)N1CC2 (stereo unspecified) was what?
Response: inactive

Query: In this assay, the call recorded for CCN(CC)CCS(=O)(=O)CCNc1ccnc2cc(Cl)ccc12 was what?
Response: inactive

Query: In this assay, the call recorded for COc1ccc(-c2nc3ccccn3c2/C=C/C(=O)c2cc(OC)c(OC)c(OC)c2)cc1OC was what?
Response: active

Query: In this assay, the call recorded for Nc1cccc2c1C(=O)c1cccc(NC(=O)c3ccccc3)c1C2=O was what?
Response: inactive

Query: In this assay, the call recorded for Cc1ccc(S(=O)(=O)n2cc(C(=O)C(=O)N3CCCCC3)c3ccccc32)cc1 was what?
Response: active

Query: In this assay, the call recorded for C=C(C)[C@@H]1CC[C@]2(C(=O)O)CC[C@]3(C)[C@H](CC[C@@H]4[C@@]5(C)C/C(=C/c6ccco6)C(=O)C(C)(C)[C@@H]5CC[C@]43C)[C@@H]12 was what?
Response: active

Query: In this assay, the call recorded for CCn1cc(-c2ccnc(NCCNS(=O)(=O)c3ccc(Br)cc3)c2)c(-c2cccc(OC)c2)n1 was what?
Response: inactive

Query: In this assay, the call recorded for CCn1cc(-c2[nH]c(=S)ncc2-c2ccc(Cl)cc2)c(-c2ccc(Br)cc2)n1 was what?
Response: inactive

Query: In this assay, the call recorded for Cc1cccc(C[C@H](NC(=O)Nc2ccc(Cl)cc2F)C(=O)N[C@@H]2C(=O)N3C[C@H](O)C[C@H]3C(=O)N3CCCC[C@H]3C(=O)N[C@@H](C)C(=O)N3C[C@H](C)C[C@H]3C(=O)O[C@H]2C)c1 was what?
Response: active

Query: In this assay, the call recorded for CCc1ccc(C2=C/C(=C/c3ccccc3)C(=O)N2CCc2ccc(S(N)(=O)=O)cc2)cc1 was what?
Response: inactive

====

tested on: COLO 205 colon; assay: NCI-60 one-dose screen, 48 h; settings: 10 µM unless noted
The panel holds about 83,000 compounds, 20% with a hit somewhere; the sample as a whole holds those more often. Active and inactive are the calls of the source. The calls were made as follows: active = growth percent below 10; inactive = the rest.
Respond only with the outcome that fits, drawn from 1 (yes) for active, 0 (no) for inactive

Examples from the recorded data:
COMPOUND: C=CCc1nc2ccccc2s1
MEASUREMENT TARGET: COLO 205 colon
CATEGORY: 0 (no)
//
COMPOUND: CCCCC(CCCCCC(CCCC)C1NC(C)Cc2cc(OC)c(OC)cc21)C1NC(C)Cc2cc(OC)c(OC)cc21 (stereo not drawn)
MEASUREMENT TARGET: COLO 205 colon
CATEGORY: 1 (yes)
//
COMPOUND: Cc1ccc(S(=O)(=O)N/N=C2\CC3CCC2(C)C3(C)C)cc1 (stereo not drawn)
MEASUREMENT TARGET: COLO 205 colon
CATEGORY: 0 (no)
//
COMPOUND: Cn1cc(-c2nnc(-c3cn(C)c4ncccc34)s2)c2ccccc21
MEASUREMENT TARGET: COLO 205 colon
CATEGORY: 0 (no)
//
COMPOUND: CC(=O)CC(=O)SC1=NCCS1
MEASUREMENT TARGET: COLO 205 colon
CATEGORY: 0 (no)

Query: In this assay, the call recorded for CC(=O)OC[C@]12CC[C@@H]([C@@H](C)C(N)=O)[C@@H]1[C@H]1CC[C@@H]3[C@@]4(C)CC[C@H](OC(C)=O)C(C)(C)[C@@H]4CC[C@@]3(C)[C@]1(C)CC2 was what?
Response: 1 (yes)

Query: In this assay, the call recorded for Cc1nn(-c2ccccc2)c(N2CCOCC2)c1-c1nc2ccc([N+](=O)[O-])cc2[nH]1 was what?
Response: 0 (no)

Query: In this assay, the call recorded for O=C(CSc1nccc(Nc2ccc(S(=O)(=O)Nc3ccccn3)cc2)n1)c1ccc(Cl)cc1 was what?
Response: 0 (no)
